src = the supplement of paper PMC12667976

B1: library; numbered along this chain (parent)
chain: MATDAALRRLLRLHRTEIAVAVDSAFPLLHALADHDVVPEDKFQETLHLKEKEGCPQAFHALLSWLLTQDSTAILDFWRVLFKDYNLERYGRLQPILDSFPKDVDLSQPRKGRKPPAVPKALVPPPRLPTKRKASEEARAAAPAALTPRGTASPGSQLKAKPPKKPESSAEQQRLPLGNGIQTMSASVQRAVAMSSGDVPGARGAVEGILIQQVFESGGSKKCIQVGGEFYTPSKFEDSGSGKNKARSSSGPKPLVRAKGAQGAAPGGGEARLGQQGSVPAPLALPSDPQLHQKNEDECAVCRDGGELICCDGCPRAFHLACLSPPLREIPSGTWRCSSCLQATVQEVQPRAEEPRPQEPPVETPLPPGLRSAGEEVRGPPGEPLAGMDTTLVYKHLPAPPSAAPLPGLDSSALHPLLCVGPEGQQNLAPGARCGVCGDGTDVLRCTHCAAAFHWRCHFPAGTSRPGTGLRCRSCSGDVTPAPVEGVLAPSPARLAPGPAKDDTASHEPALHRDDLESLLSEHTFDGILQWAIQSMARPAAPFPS

# Variants of: B1
# Protocol Details: AIRE transcriptional activation functional score (insulin promoter-GFP; nonsense median 0, synonymous median 1) (normalised score); higher = higher AIRE activity (more reporter activation)
# Test Context: with insulin promoter-GFP reporter in HEK293
For each entry below, report its AIRE transcriptional activation functional score value.
Please give the numeric answer without any surrounding text.

// E485A : AIRE transcriptional activation functional score value = 0.466

Sample L62W ; AIRE transcriptional activation functional score observed: 0.305

// recorded AIRE transcriptional activation functional score for R538M : 1.05

Value of measured AIRE transcriptional activation functional score for the entry L406P : 0.97

// I211G : AIRE transcriptional activation functional score value = 0.694

Summary for this variant, G150Y : AIRE transcriptional activation functional score is 2.21

Entry V393C ; AIRE transcriptional activation functional score = 1.11

Documented AIRE transcriptional activation functional score of V348K : 0.974

The variant listed as A450H has a reported AIRE transcriptional activation functional score of 1.43

The recorded AIRE transcriptional activation functional score for entry R8W equals -0.126

P280G has a reported AIRE transcriptional activation functional score of 1.17

Quick note, AIRE transcriptional activation functional score for R174C landed at 0.35

The variant R12C showed AIRE transcriptional activation functional score equal to -0.448

Data point: P27S ; AIRE transcriptional activation functional score = 0.41

GET /value?item= L516T &field=AIRE transcriptional activation functional score returns 0.362

Just so you know, measured AIRE transcriptional activation functional score for A432M came out at 0.0975

The measured AIRE transcriptional activation functional score associated with K161Q reads 0.799

Please fill in: AIRE transcriptional activation functional score reported for Q346D = 1.46

The variant identified as E508P registered its AIRE transcriptional activation functional score at 0.813

The recorded AIRE transcriptional activation functional score for entry P163F equals 0.944
